experimental-target: T1, hK1 (human tissue kallikrein 1), recombinant (human, UniProt P06870 25-262)
T1 construct: Expressed in P. pastoris from KLK1 cDNA and purified; enzymatically active; also called KLK1; Recombinant (Pichia) Kallikrein
test-name: SPR
Each entry below carries its reported koff.
Write the answer as a number in s⁻¹, unit excluded.

Consider the reported koff for these binders:
Input line: If you can, please state the reported koff value of M0094-F03 (Fab, V domains shown) VH: EVQLLESGGGLVQPGGSLRLSCAASGFTFSWYQMSWVRQAPGKGLEWVSSIYPSGGATKYADSVKGRFTISRDNSKNTLYLQMNSLRAEDTAMYYCARMGLHHSFDYWGQGTLVTVSS VL: DIQMTQSPGTLSLSLGETATLSCRASQTVGGSYLAWYRQKPGQAPSLLIYAASNRAPGIPDRFSGSGSGTDFTLTISSLQSEDFAVYYCQQYGSSMYTFGQGTILEIKR .
Output line: 0.00644

Input line: State the recorded koff for this entry: M0096-E11 (Fab, V domains shown) VH: EVQLLESGGGLVQPGGSLRLSCAASGFTFSHYLMYWVRQAPGKGLEWVSSIYPSGGFTAYADSVKGRFTISRDNSKNTLYLQMNSLRAEDTAVYYCARRGVYGTFDIWGQGTMVTVSS VL: DIQMTQSPLSLSASVGDRVTMTCRASQTISSYLNWYQQKPGKAPKLLIYTTSSLQSGVPSRFSGSGSGTEFTLTISSLQPEDFATYYCQQSHSSPTFGGGTKVEIKR
Output line: 0.00836

Others:
Input line: Report koff for M0131-F09 (Fab, V domains shown) VH: EVQLLESGGGLVQPGGSLRLSCAASGFTFSHYVMQWVRQAPGKGLEWVSGIGPSGGSTTYADSVKGRFTISRDNSKNTLYLQMNSLRAEDTAVYYCARVGVWYGMDVWGQGTTVTVSS VL: DIQMTQSPATLSLSPGERATLSCRASQSVSSYLAWYQQKPGQAPRLLIYDASNRATGIPARFSGSGSGTDFTLTISSLEPEDFAVYYCQQRSNWLWTFGQGTKVEIKR please.
Output line: 0.000734
